B1: Pistol ribozyme (parent)
chain: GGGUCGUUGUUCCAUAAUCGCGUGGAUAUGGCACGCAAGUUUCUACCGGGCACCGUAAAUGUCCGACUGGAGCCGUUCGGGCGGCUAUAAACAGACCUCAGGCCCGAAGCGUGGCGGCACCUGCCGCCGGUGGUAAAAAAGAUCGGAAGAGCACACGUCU

- Variants of: B1
- assay_summary: aptazyme ON/OFF ratio, guanine; higher = stronger switching; co-transcriptional cleavage with and without guanine
property_name: aptazyme ON/OFF ratio
Please give the numeric answer without any surrounding text.

Here's what some known entries look like.
INSERT INTO measurements (mutant, test_value) VALUES
  ('U7A G9A U10G U11G C12G C13A', 1.2),
  ('U7G U8C G9C U11G C12U C13G', 1.33),
  ('U7A U8G G9A', 3.13),
  ('U7C U8C G9A U10C U11A C13A', 1.41),
  ('U7A U8G G9C C13G', 1.11);

Consider the record given below.
## Task Field request: aptazyme ON/OFF ratio | item: U7G G9U U10G C12U C13G
## Result 1.34
